EXPERIMENTAL SYSTEM: Ribonucleoside-diphosphate reductase large subunit (Herpes simplex virus (type 1 / strain 17), UniProt P08543)
Sequence (P08543 whole entry): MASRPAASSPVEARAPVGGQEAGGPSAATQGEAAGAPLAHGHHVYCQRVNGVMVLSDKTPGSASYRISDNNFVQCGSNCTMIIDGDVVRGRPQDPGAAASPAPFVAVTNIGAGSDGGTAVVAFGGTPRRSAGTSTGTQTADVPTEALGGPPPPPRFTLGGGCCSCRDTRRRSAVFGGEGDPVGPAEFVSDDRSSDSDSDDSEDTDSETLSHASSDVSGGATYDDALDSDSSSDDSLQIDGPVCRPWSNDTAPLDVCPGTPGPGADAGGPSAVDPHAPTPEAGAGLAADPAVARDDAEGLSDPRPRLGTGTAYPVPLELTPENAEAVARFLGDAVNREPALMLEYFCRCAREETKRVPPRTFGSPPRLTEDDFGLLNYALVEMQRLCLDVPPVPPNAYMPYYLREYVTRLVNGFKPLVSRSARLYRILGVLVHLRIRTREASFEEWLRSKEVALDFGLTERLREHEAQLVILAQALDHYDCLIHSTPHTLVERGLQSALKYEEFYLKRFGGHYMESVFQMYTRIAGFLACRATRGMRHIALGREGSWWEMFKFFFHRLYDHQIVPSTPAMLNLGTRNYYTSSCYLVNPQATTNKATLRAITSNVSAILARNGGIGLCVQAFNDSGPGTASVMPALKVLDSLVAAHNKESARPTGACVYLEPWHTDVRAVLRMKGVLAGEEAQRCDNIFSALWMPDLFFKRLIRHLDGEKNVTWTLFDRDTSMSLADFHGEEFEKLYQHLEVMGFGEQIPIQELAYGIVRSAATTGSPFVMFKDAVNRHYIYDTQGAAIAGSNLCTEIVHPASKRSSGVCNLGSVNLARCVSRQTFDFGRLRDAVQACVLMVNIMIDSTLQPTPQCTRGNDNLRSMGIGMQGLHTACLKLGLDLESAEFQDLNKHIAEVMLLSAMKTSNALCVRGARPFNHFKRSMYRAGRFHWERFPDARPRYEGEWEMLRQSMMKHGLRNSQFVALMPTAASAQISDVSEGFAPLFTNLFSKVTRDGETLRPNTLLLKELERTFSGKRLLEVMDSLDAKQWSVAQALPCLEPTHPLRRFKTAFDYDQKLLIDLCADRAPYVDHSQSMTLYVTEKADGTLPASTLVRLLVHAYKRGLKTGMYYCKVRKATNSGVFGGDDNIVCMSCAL
ASSAY TEXT: Inhibitory activity against HSV-1 Ribonucleoside diphosphate reductase was determined
Design: species or system Human alphaherpesvirus 1
Numbered stars: 1 amine (or outer) side, 2 acyl side, 3 side chain; on linkers, the order of the positions; unused ones are H or OH. Square brackets hold non-standard residues; d marks the D form. Peptide text beside a SMILES is read from it. * marks the point of attachment. X1 = CC(C)[C@@H](C(=O)[*:2])N(CCCCCCCCO[*:3])[*:1]; Desaminotyrosyl = O=C(CCc1ccc(O)cc1)*
Would you mind telling me the reported pIC50 of each entry?
Please report pIC50 as the negative decimal logarithm of the molar concentration, giving only the number.

Which measured pIC50 value corresponds to CC(C)C[C@H](NC(=O)[C@H](CC(=O)O)NC(=O)[C@H](CC(N)=O)NC(=O)[C@@H](NC(=O)[C@@H](NCCCCCCCCOC(=O)[C@@H](N)Cc1ccc(O)cc1)C(C)C)C(C)C)C(=O)O (H-[X1](Tyr)VNDL-OH) ? 4.20

Ok, now CC(=O)N[C@H](Cc1ccc(O)cc1)C(=O)N[C@@H](C)C(=O)NCC(=O)N[C@@H](C)C(=O)N[C@H](C(=O)N[C@H](C(=O)N[C@@H](CC(N)=O)C(=O)N[C@@H](CC(=O)O)C(=O)N[C@@H](CC(C)C)C(=O)O)C(C)C)C(C)C 4.22

Ok, now CC(C)C[C@H](NC(=O)[C@H](CC(=O)O)NC(=O)[C@H](CC(N)=O)NC(=O)[C@@H](NC(=O)[C@@H](NC(=O)[C@H](C)NC(=O)CNC(=O)[C@H](C)NC(=O)CCc1ccc(O)cc1)C(C)C)C(C)C)C(=O)O (Desaminotyrosyl-AGAVVNDL-OH) 4.22

Ok, now CC(=O)N[C@@H](Cc1ccc(O)cc1)C(=O)N[C@@H](C)C(=O)NCC(=O)N[C@@H](C)C(=O)N[C@H](C(=O)N[C@H](C(=O)N[C@@H](CC(N)=O)C(=O)N[C@@H](CC(=O)O)C(=O)N[C@@H](CC(C)C)C(N)=O)C(C)C)C(C)C 4.22

Ok, now COc1ccc(C[C@H](NC(C)=O)C(=O)N[C@@H](C)C(=O)NCC(=O)N[C@@H](C)C(=O)N[C@H](C(=O)N[C@H](C(=O)N[C@@H](CC(N)=O)C(=O)N[C@@H](CC(=O)O)C(=O)N[C@@H](CC(C)C)C(=O)O)C(C)C)C(C)C)cc1 4.22

Ok, now CC(=O)N[C@@H](Cc1ccc(O)cc1)C(=O)N[C@@H](C)C(=O)NCC(=O)N[C@@H](C)C(=O)N[C@H](C(=O)N[C@H](C(=O)N[C@@H](CC(N)=O)C(=O)N[C@@H](CC(=O)O)C(=O)N[C@@H](CC(C)C)C(=O)O)C(C)C)C(C)C 4.22

Ok, now CC(=O)N[C@H](C(=O)N[C@H](C(=O)N[C@@H](CC(N)=O)C(=O)N[C@@H](CC(=O)O)C(=O)N[C@@H](CC(C)C)C(=O)O)C(C)C)C(C)C 4.22

Ok, now CC(C)C[C@H](NC(=O)[C@H](CC(=O)O)NC(=O)[C@H](CC(N)=O)NC(=O)[C@@H](NC(=O)[C@@H](NC(=O)[C@H](C)NC(=O)CNC(=O)[C@H](C)NC(=O)[C@H](Cc1ccc(O)cc1)NC(=O)CCCCCCCN)C(C)C)C(C)C)C(=O)O 4.36

Ok, now CC(C)C[C@H](NC(=O)[C@H](CC(=O)O)NC(=O)[C@H](CC(N)=O)NC(=O)[C@@H](NC(=O)[C@@H](NC(=O)[C@H](C)NC(=O)CNC(=O)[C@H](C)NC(=O)[C@@H](N)Cc1ccc(O)cc1)C(C)C)C(C)C)C(N)=O 4.22
